System: P388 leukemia ip, CD2F1 mice, survival T/C
assay_comment: NCI In Vivo Anticancer Drug Screen. Data for tumor model P388 Leukemia (intraperitoneal) in CD2F1 (CDF1) mice
measurement_conditions: endpoint: median survival time; dose: 50.0 mg/kg/injection; schedule: Q04DX002 (ip); vehicle: saline with Tween-80; higher = longer survival
Toxic doses and inconclusive results are not listed.
attribute_measured: T/C

Some entries whose results are on file:
[Cu+2].[O-]/C(=N\N=C\c1ccccn1)c1ccccc1O.[O-]/C(=N\N=C\c1ccccn1)c1ccccc1O | 98 % of control
COc1ccc(-c2oc3cc(OC)c(OC)c(O)c3c(=O)c2O)cc1O | 110 % of control
C/C(=N\N=C(N)N)c1ccc(-c2ccccc2)cc1 | 109 % of control
CCCCCCCC/C=C\C(O)=C1\C(=O)NC(CCCNC(=O)OCc2ccccc2)C1=O (configuration not stated) | 100 % of control
Cn1c(=O)ccc2ccccc21 | 100 % of control

Fill blank: measured T/C of the molecule CCN(CC)CCNc1cc(O)c2c(c1O)C(=O)c1ccccc1C2=O is ____.
98 % of control

Now give it for COc1cc([C@H]2c3cc4c(cc3C[C@H]3COC(=O)[C@@H]32)OCO4)cc(OC)c1OC too.
89 % of control

====

System: P388 leukemia ip, CD2F1 mice, survival T/C
assay_comment: NCI In Vivo Anticancer Drug Screen. Data for tumor model P388 Leukemia (intraperitoneal) in CD2F1 (CDF1) mice
measurement_conditions: endpoint: median survival time; dose: 50.0 mg/kg/injection; schedule: Q01DX005 (ip); vehicle: saline; higher = longer survival
Toxic doses and inconclusive results are not listed.
attribute_measured: T/C

Record lookup: for P388 leukemia ip, CD2F1 mice, survival T/C, what T/C belongs to O=C(c1ccccc1)c1ccc[n+](Cc2ccccc2)c1 ?
111 % of control

Now give it for CCN(CC)CCCC(C)Nc1nc(-c2ccc(OC)cc2)nc2cc(Cl)ccc12 (centres undefined) too.
102 % of control

Now give it for C/C=C1\CN2CC[C@H]1C[C@H]2[C@H](O)c1ccnc2ccc(NCCO)cc12 too.
94 % of control

Now give it for NC(=O)C(CCCN=C(N)N)NC(=O)c1ccccc1 (centres undefined) too.
105 % of control

Now give it for Cn1cc(N)c(=O)[nH]c1=O too.
98 % of control

Now give it for CC1=NC(C)(Cc2ccccc2)SC1c1ccccc1 (centres undefined) too.
100 % of control

====

System: P388 leukemia ip, CD2F1 mice, survival T/C
assay_comment: NCI In Vivo Anticancer Drug Screen. Data for tumor model P388 Leukemia (intraperitoneal) in CD2F1 (CDF1) mice
measurement_conditions: endpoint: median survival time; dose: 6.25 mg/kg/injection; schedule: Q01DX009 (ip); vehicle: water; higher = longer survival
Toxic doses and inconclusive results are not listed.
We begin with a simple list: items and their reported T/C.

O=NNc1c2c(nc3ccccc13)CCCC2 | 94 % of control

Fill blank: measured T/C of the compound CC1=CC(C)(O)C=C(C)C1=O is ____.
97 % of control

Now give it for ClCCc1cnc[nH]1 too.
101 % of control

Now give it for CN1CCC(COC(=O)CC(C)(C)C)C1 (stereo not given) too.
100 % of control

Now give it for Nc1n[n+](C2CCCCC2)no1 too.
98 % of control

====

We begin with a simple list: items and their reported T/C.
System: P388 leukemia ip, CD2F1 mice, survival T/C
assay_comment: NCI In Vivo Anticancer Drug Screen. Data for tumor model P388 Leukemia (intraperitoneal) in CD2F1 (CDF1) mice
measurement_conditions: endpoint: median survival time; dose: 12.5 mg/kg/injection; schedule: Q01DX005 (ip); vehicle: saline with Tween-80; higher = longer survival
Toxic doses and inconclusive results are not listed.

Some entries whose results are on file:
O=C1[N-]C(=S)c2cccn21.O=C1[N-]C(=S)c2cccn21.[Pd+2] | 103 % of control
CCN(C(=S)NNC(=S)N/N=C(\C)c1ccccn1)c1ccccc1 | 107 % of control

Proceeding to the next compound to report its T/C.
Fill blank: measured T/C of the compound O=Cc1ccc(NCCCN2CCN(CCCNc3ccc(C=O)c4sc5ccccc5c(=O)c34)CC2)c2c(=O)c3ccccc3sc12 is ____.
99 % of control

====

We begin with a simple list: items and their reported T/C.
Test system: P388 leukemia ip, CD2F1 mice, survival T/C
assay_comment: NCI In Vivo Anticancer Drug Screen. Data for tumor model P388 Leukemia (intraperitoneal) in CD2F1 (CDF1) mice
measurement_conditions: endpoint: median survival time; dose: 50.0 mg/kg/injection; schedule: Q04DX002 (ip); vehicle: Klucel (hydroxypropylcellulose) (HPC); higher = longer survival
Toxic doses and inconclusive results are not listed.

Fill blank: measured T/C of the molecule COc1cc2ccnc(CCCc3nccc4cc(OC)c(OC)cc34)c2cc1OC is ____.
95 % of control

Now give it for CCN(CC)C1=Nc2ccccc2N(c2ccccc2)C(N2CCCCC2)=C1 too.
101 % of control

Now give it for Cn1c(=O)c2nsnc2n(C)c1=O too.
110 % of control

Now give it for CCOC(=O)n1c(=O)oc2c(Br)cc(Br)cc21 too.
96 % of control

====

System: P388 leukemia ip, CD2F1 mice, survival T/C
assay_comment: NCI In Vivo Anticancer Drug Screen. Data for tumor model P388 Leukemia (intraperitoneal) in CD2F1 (CDF1) mice
measurement_conditions: endpoint: median survival time; dose: 200.0 mg/kg/injection; schedule: Q01DX001 (ip); vehicle: Klucel (hydroxypropylcellulose) (HPC); higher = longer survival
Toxic doses and inconclusive results are not listed.
attribute_measured: T/C

NC(=O)NN(Cc1ccc(Br)cc1)N=O | 97 % of control
C=C(C)OP(=O)(OCC)OCC | 111 % of control

Fill blank: measured T/C of the compound COC(=O)C1=C(OC(C)=O)c2ccccc2CS1 is ____.
96 % of control

Now give it for CC(=O)Nc1ccc2nc3n(c(=O)c2c1)CCCC3 too.
101 % of control

Now give it for CN(C)c1ccc(C(=O)C2(Cl)CCCCC2)cc1 too.
100 % of control

Now give it for CC(C)(C)c1ccc(S(=O)[O][Sn]([CH3])([CH3])[O]S(=O)c2ccc(C(C)(C)C)cc2)cc1 (configuration not stated) too.
114 % of control

Now give it for CN(C)c1ccc(C2=CC(c3ccc(N(C)C)cc3)(c3ccc(C(F)(F)F)cc3)C=C(c3ccc(N(C)C)cc3)S2)cc1 too.
92 % of control

Now give it for CC(=O)OC1=CC(OC(C)=O)C2C(=O)C3=C(C(=O)c4ccccc4C3=O)C(=O)C2C1 (configuration not stated) too.
102 % of control

Now give it for O=C1CCCc2cc([N+](=O)[O-])ccc2N1 too.
103 % of control

Now give it for N#CC1CCCC(Cc2ccccc2)(c2ccccc2)C1=O (configuration not stated) too.
102 % of control

Now give it for Nc1nnc2cccc(Cl)n12 too.
96 % of control

Now give it for Cc1ccc(S(=O)(=O)N/N=C/c2c(-c3ccc(-c4ccccc4)cc3)nc3sccn23)cc1 too.
86 % of control

====

Test system: P388 leukemia ip, CD2F1 mice, survival T/C
assay_comment: NCI In Vivo Anticancer Drug Screen. Data for tumor model P388 Leukemia (intraperitoneal) in CD2F1 (CDF1) mice
measurement_conditions: endpoint: median survival time; dose: 50.0 mg/kg/injection; schedule: Q01DX005 (ip); vehicle: Klucel (hydroxypropylcellulose) (HPC); higher = longer survival
Inconclusive results and toxic doses are left out. Square brackets hold non-standard residues; d marks the D form. Peptide text beside a SMILES is read from it. * marks the point of attachment. ξ: configuration not given here. Cbz = O=C(OCc1ccccc1)*; ξM = CSCCC(N)C(=O)O
attribute_measured: T/C

Some entries whose results are on file:
O=C(NC1CC1)C(Cl)Cl | 103 % of control
CC1=CC(=C2C(=O)c3ccccc3C2=O)C=C(C)O1 | 101 % of control
COc1cc(/C=C2\N=C(C)OC2=O)ccc1O | 106 % of control

Fill blank: measured T/C of the compound O=C(N/N=C/c1ccccn1)c1ccccc1[O-].O=C(N/N=C/c1ccccn1)c1ccccc1[O-].[Mn+2] is ____.
103 % of control

Now give it for CC1(C)NC(=O)N(CCCCCCN2C(=O)NC(C)(C)C2=O)C1=O too.
94 % of control

Now give it for CSCCC(NC(=O)CNC(=O)CNC(=O)OCc1ccccc1)C(=O)O (stereo not drawn) (Cbz-Gly-Gly-[ξM]-OH) too.
95 % of control

Now give it for O=C1NC(=O)C2(Br)Nc3ccc(Br)cc3C(=O)C2N1 (stereo unspecified) too.
100 % of control

Now give it for Nc1cc(Cl)cc2c1-c1ccc(Cl)cc1C2=O too.
91 % of control

Now give it for C[N+]1=C(/C=C/Nc2cccc(N/C=C/C3=[N+](C)c4ccccc4C3(C)C)c2)C(C)(C)c2ccccc21 too.
105 % of control

Now give it for Cc1c(C)c2c(=O)c3ccccc3[nH]c2c2ccccc12 too.
108 % of control

Now give it for CC1=C(C#N)C(=O)NC(C)C1 (stereo unspecified) too.
101 % of control
